Listed below: fold difference in affinity vs original values for each entry.
Target: binding partner of C5A (XPA23)
Test Summary: Biacore K-off

Binder: C5A (XPA23) VL S53T (antibody, V domains shown) VH: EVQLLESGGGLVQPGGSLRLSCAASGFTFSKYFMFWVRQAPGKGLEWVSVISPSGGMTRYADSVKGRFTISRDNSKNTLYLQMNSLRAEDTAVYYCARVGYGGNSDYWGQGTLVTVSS VL: DIQMTQSPSSVSASVGDRLTIICRASQDINRWLAWYQQTPGNAPKLLIHSATTLQSGVPSRFSGSGSGTDFTLTINSLQPEDFATYYCQQADSFPLTFGGGTKVEIK
fold difference in affinity vs original (fold): 0.95

Binder: C5A (XPA23) VL T52N (antibody, V domains shown) VH: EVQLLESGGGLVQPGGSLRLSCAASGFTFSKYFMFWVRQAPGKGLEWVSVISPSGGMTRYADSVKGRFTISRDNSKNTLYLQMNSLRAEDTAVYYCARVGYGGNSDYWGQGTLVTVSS VL: DIQMTQSPSSVSASVGDRLTIICRASQDINRWLAWYQQTPGNAPKLLIHSANSLQSGVPSRFSGSGSGTDFTLTINSLQPEDFATYYCQQADSFPLTFGGGTKVEIK
fold difference in affinity vs original (fold): 0.83

Binder: C5A (XPA23) VL L96S (antibody, V domains shown) VH: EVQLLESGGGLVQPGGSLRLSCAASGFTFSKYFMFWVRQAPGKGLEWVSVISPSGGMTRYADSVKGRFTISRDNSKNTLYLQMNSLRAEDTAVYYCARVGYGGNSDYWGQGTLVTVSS VL: DIQMTQSPSSVSASVGDRLTIICRASQDINRWLAWYQQTPGNAPKLLIHSATSLQSGVPSRFSGSGSGTDFTLTINSLQPEDFATYYCQQADSFPSTFGGGTKVEIK
fold difference in affinity vs original (fold): 0.23

Binder: C5A (XPA23) VL D28N (antibody, V domains shown) VH: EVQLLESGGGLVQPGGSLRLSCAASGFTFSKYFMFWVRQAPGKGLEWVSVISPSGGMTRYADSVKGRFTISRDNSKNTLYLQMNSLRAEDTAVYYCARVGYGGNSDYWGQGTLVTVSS VL: DIQMTQSPSSVSASVGDRLTIICRASQNINRWLAWYQQTPGNAPKLLIHSATSLQSGVPSRFSGSGSGTDFTLTINSLQPEDFATYYCQQADSFPLTFGGGTKVEIK
fold difference in affinity vs original (fold): 1

Binder: C5A (XPA23) VL S50W (antibody, V domains shown) VH: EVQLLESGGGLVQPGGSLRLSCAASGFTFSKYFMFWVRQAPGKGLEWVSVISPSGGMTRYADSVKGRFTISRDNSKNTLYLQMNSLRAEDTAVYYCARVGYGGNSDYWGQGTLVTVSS VL: DIQMTQSPSSVSASVGDRLTIICRASQDINRWLAWYQQTPGNAPKLLIHWATSLQSGVPSRFSGSGSGTDFTLTINSLQPEDFATYYCQQADSFPLTFGGGTKVEIK
fold difference in affinity vs original (fold): 0.02

Origin of the recorded values: patent US20110118447A1
